This collection of values is drawn from patent US20250145711A1.

TARGET: T1, CD3 on primary human pan T cells (human, UniProt P07766 23-207)
T1 construct: on cells it stands in the TCR/CD3 complex; also called Pan T-cells (CD3-positive); endogenous CD3
T1 sequence (P07766 23-207 limits assumed): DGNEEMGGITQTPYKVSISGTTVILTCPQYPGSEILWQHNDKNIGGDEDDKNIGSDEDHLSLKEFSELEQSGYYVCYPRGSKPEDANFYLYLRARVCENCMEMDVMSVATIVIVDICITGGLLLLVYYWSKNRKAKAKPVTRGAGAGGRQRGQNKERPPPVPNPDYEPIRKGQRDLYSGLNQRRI
ASSAY: flow cytometry, pan T-cells
Below, each of the binders is paired with its reported % Binding retained on T-cells, 65° C. value.

{"columns": ["BINDER", "% Binding retained on T-cells, 65° C. [fraction]"],
 "data": [
  ["CD3B2058 (scFv) scFv: QVQLVQSGAEVKKPGSSVKVSCKASGYTFTRSTMHWVKQAPGQGLEWIGYINPSSAYTNYAQKFQGRVTLTADKSTSTAYMELSSLRSEDTAVYYCASPQVHYDYNGFPYWGQGTLVTVSSGGSEGKSSGSGSESKSTGGSEIVLTQSPATLSASPGERVTLSCSASSSVSYMNWYQQKPGTSPRRWIYDSSKLASGVPARFSGSGSGRDYTLTISSLEPEDFAVYYCQQWSRNPPTFGGGTKVEIK", 0.174],
  ["CD3B2088 (scFv) scFv: QVQLVQSGAEVKKPGSSVKVSCKASGYTFTRSTMHWVRQAPGQGLEWMGYINPSSAYTNYAQKFQGRVTLTADKSTSTAYMELSSLRSEDTAVYYCASPQVHYDYNGFPYWGQGTLVTVSSGGSEGKSSGSGSESKSTGGSEIVLTQSPATLSASPGERVTLSCSASSSVSYMNWYQQKPGQSPRRWIYDSSKLASGVPARFSGSGSGRDYTLTISSLEPEDFAVYYCQQWSRNPPTFGGGTKVEIK", 0.258],
  ["CD3B2087 (scFv) scFv: QVQLVQSGAEVKKPGSSVKVSCKASGYTFTRSTMHWVRQAPGQGLEWMGYINPSSAYTNYAQKFQGRVTLTADKSTSTAYMELSSLRSEDTAVYYCASPQVHYDYNGFPYWGQGTLVTVSSGGSEGKSSGSGSESKSTGGSEIVLTQSPATLSASPGERVTLSCSASSSVSYMNWYQQKPGTAPRRLIYDSSKLASGVPARFSGSGSGRDYTLTISSLEPEDFAVYYCQQWSRNPPTFGGGTKVEIK", 0.105]
]}
